- Test system: BMDMs
- ASSAY_REMARKS: AmTARS-stimulated BMDMs pre-treated with kinase/CREB inhibitors
- Format: cell-based, mouse
- PROTOCOL_CONDITIONS: BMDMs pre-treated 1 h with inhibitor before AmTARS 24 h
PARAMETER_MEASURED: macrophage polarization (CD206 positive) by AmTARS

>  <MOLECULE>
COc1cccc(-c2cc(=O)c3ccccc3o2)c1N

>  <VALUE_MEASURED>
significant suppression

$$$$
>  <MOLECULE>
CCn1c(-c2nonc2N)nc2cncc(CNC3CCNCC3)c21 [SB747651A]

>  <VALUE_MEASURED>
significant suppression

$$$$
>  <MOLECULE>
O=c1[nH]c2ccccc2n1C1CCN(Cc2ccc(-c3nc4cc5[nH]cnc5cc4nc3-c3ccccc3)cc2)CC1

>  <VALUE_MEASURED>
significant suppression

$$$$
>  <MOLECULE>
C[S+]([O-])c1ccc(-c2nc(-c3ccncc3)c(-c3ccc(F)cc3)[nH]2)cc1 (stereo not shown)

>  <VALUE_MEASURED>
significant suppression

$$$$
